test system: human breast tumor cell line MCF-7; format: cell-based; details: CCK-8, 96 h treatment, 0.39-50 μM, OD 450 nm; read-out: IC50 (μM) MCF-7
experimental_readout: IC50
Answers without a unit are incomplete; give the number and then its unit.

Query: Find the measured IC50: item Ac-GLFAVIKKVASVIKGL-NH2 [A4K14-citropin1.1, reference compound] , target or system human breast tumor cell line MCF-7.
Response: 14.2 µM

----------
The following compounds are listed with their measured IC50 values.
test system: human lung tumor cell line A549; type: cell-based; settings: CCK-8, 96 h treatment, 0.39-50 μM, OD 450 nm; read-out: IC50 (μM) A549
Bridge positions count the residues as written; N and C are the ends. Square brackets hold non-standard residues; d marks the D form. Peptide text beside a SMILES is read from it. R8 = C=CCCCCCC[C@@](C)(N)C(=O)O; S5 = C=CCCC[C@](C)(N)C(=O)O
Your answer is read as µM, so omit the unit and give the number.

>  <compound>
CC[C@H](C)[C@H](NC(=O)[C@@H](NC(=O)[C@H](CO)NC(=O)[C@]1(C)CCCC=CCCC[C@](C)(NC(=O)[C@@H](NC(=O)[C@H](C)NC(=O)[C@H](Cc2ccccc2)NC(=O)[C@H](CC(C)C)NC(=O)CNC(C)=O)C(C)C)C(=O)N[C@@H](CCCCN)C(=O)N[C@@H](CCCCN)C(=O)N[C@@H](C(C)C)C(=O)N1)C(C)C)C(=O)N[C@@H](CCCCN)C(=O)NCC(=O)N[C@@H](CC(C)C)C(N)=O [A4K14-citropin1.1-3] (Ac-GLFAV[S5]KKV[S5]SVIKGL-NH2; staple 6-10)

>  <IC50 / µM>
12.1

$$$$

Query: Recorded IC50 for CC[C@H](C)[C@H](NC(=O)[C@@H](NC(=O)[C@H](CO)NC(=O)[C@H](C)NC(=O)[C@@H](NC(=O)[C@H](CCCCN)NC(=O)[C@H](CCCCN)NC(=O)[C@]1(C)CCCC=CCCC[C@](C)(NC(=O)CNC(C)=O)C(=O)N[C@@H](Cc2ccccc2)C(=O)N[C@@H](C)C(=O)N[C@@H](C(C)C)C(=O)N1)C(C)C)C(C)C)C(=O)N[C@@H](CCCCN)C(=O)NCC(=O)N[C@@H](CC(C)C)C(N)=O [A4K14-citropin1.1-1] (Ac-G[S5]FAV[S5]KKVASVIKGL-NH2; staple 2-6) , please?
Response: 12.5

Query: Now this one: CC(=O)NCC(=O)N[C@@H](CC(C)C)C(=O)N[C@@H](Cc1ccccc1)C(=O)N[C@@H](C)C(=O)N[C@H](C(=O)N[C@]1(C)CCCCCCC=CCCC[C@@](C)(C(=O)N[C@@H](CCCCN)C(=O)NCC(=O)N[C@@H](CC(C)C)C(N)=O)NC(=O)[C@H](C(C)C)NC(=O)[C@H](CO)NC(=O)[C@H](C)NC(=O)[C@H](C(C)C)NC(=O)[C@H](CCCCN)NC(=O)[C@H](CCCCN)NC1=O)C(C)C [A4K14-citropin1.1-7] (Ac-GLFAV[R8]KKVASV[S5]KGL-NH2; staple 6-13)
Response: 16.4

Query: Now this one: CC[C@H](C)[C@H](NC(=O)[C@@H](NC(=O)[C@H](C)NC(=O)[C@H](Cc1ccccc1)NC(=O)[C@H](CC(C)C)NC(=O)CNC(C)=O)C(C)C)C(=O)N[C@@H](CCCCN)C(=O)N[C@@H](CCCCN)C(=O)N[C@@]1(C)CCCC=CCCC[C@@](C)(C(=O)N[C@@H](CCCCN)C(=O)NCC(=O)N[C@@H](CC(C)C)C(N)=O)NC(=O)[C@H](C(C)C)NC(=O)[C@H](CO)NC(=O)[C@H](C)NC1=O [A4K14-citropin1.1-4] (Ac-GLFAVIKK[S5]ASV[S5]KGL-NH2; staple 9-13)
Response: 10.5
